Ref: PubChem BioAssay (NCI)

Tested on: SK-OV-3 ovarian
Assay Info: NCI-60 one-dose screen, 48 h (100 = growth as untreated, 0 = no growth, -100 = all killed)
Experimental Parameters: 10 µM unless noted
About 83,000 compounds went through this panel and 20% of them were active in at least one assay; those are over-represented in the sample as a whole.
Label T when growth < 90%; otherwise F.

Before answering, review these 3 worked examples.
# Compound, Assigned Label
records = [
    ("COc1c2occc2c(OC)c2c(=O)c(-c3cc(-c4ccc(F)cc4)c(C#N)c(N)n3)c(C)oc12", "T"),
    ("Clc1ccccc1-c1nc2ccccc2[nH]1", "F"),
    ("O=C1NN(C(=O)c2ccc(Cl)cc2)C(c2ccccc2)=N/C1=C\\c1ccc(F)cc1", "F"),
]

IN: Please indicate whether the reported growth of COc1ccc(OC)c(C2OC(c3ccc4ccccc4c3O)=NN2C(C)=O)c1 (stereo not given) is strictly below 90%.
OUT: T

* * *

Test system: SF-295 CNS
Assay Info: NCI-60 one-dose screen, 48 h
Experimental Parameters: 10 µM unless noted
The panel holds about 83,000 compounds, 20% with a hit somewhere; the sample as a whole holds those more often. Calls of active or inactive are those of the source. Rule for the calls: active = growth percent below 10; inactive = the rest.
Entry note: the call must match one of active, inactive

Worked set:
# Compound, Study System, Assigned Label
records = [
    ("Cn1ccc(=O)c(S(N)(=O)=O)c1", "SF-295 CNS", "inactive"),
    ("Cc1ccc(S(=O)(=O)/C(=C\\c2ccc(Cl)cc2)C(=O)c2ccccc2)cc1", "SF-295 CNS", "inactive"),
    ("O=[N+]([O-])c1cccc(-c2nc3sccn3c2-c2ccnc(NCCCNS(=O)(=O)c3ccc(Cl)cc3)n2)c1", "SF-295 CNS", "inactive"),
]

IN: Query: recorded result category for Cc1cc(C2=NNC(=O)Cc3cc4c(cc32)OCCO4)cc(C)c1N in this test
OUT: inactive

IN: Lab log entry: COc1ccc(-n2c(=O)sc3c(Cl)nc(C)nc32)c(OC)c1 — outcome as called in the assay?
OUT: inactive

IN: Short answer needed: outcome of this test for O=Nc1c(-c2cccc([N+](=O)[O-])c2)nc2ncccn12 ?
OUT: inactive

IN: What is the recorded call for this compound in the test? CCN1CCN(c2nc(NNC(=O)c3ccccc3)nc(N3CCN(C(c4ccccc4)c4ccccc4)CC3)n2)CC1
OUT: inactive

IN: I'd appreciate the recorded outcome for ClC(Cl)c1nc(-c2ccccc2)nc2cc(-c3ccccc3)nn12 from this test.
OUT: inactive

IN: Which outcome was assigned to COc1ccc(/C=C(\C#N)c2cc(OC)c3c(c2)OCO3)cc1 in this test?
OUT: active

IN: # lookup: test call for NC(=S)N/N=C(/CCN1CCCC1)CC(C1=C(O)C2=CCCCC2OC1=O)c1ccccc1 (stereo not given)
OUT: inactive

* * *

Test system: SF-268 CNS
Assay Info: NCI-60 one-dose screen, 48 h (100 = growth as untreated, 0 = no growth, -100 = all killed)
Experimental Parameters: 10 µM unless noted
Compounds without any hit were thinned out: in the full panel of roughly 83,000, 20% have a hit.
Result Type: growth (%)
Lab book: enter the figure in %, no units written.

Use these answered entries as a reference point.
# Compound, Study System, Unit Label, Reported Measurement
records = [
    ("C=C1CCC2C3(C)COC(c4c(OC)cccc4OC)OC3CCC2(C)C1C/C=C1/C(=O)OCC1O (centres undefined)", "SF-268 CNS", "%", 67),
    ("COc1cc(C2CC(c3ccc4c(c3)OCO4)=NN2C=O)cc(OC)c1OC (centres undefined)", "SF-268 CNS", "%", 44.8),
    ("N=C(N)c1ccc(-c2ccc(-c3ccc4ccccc4c3)s2)cc1", "SF-268 CNS", "%", 94.7),
]

IN: For the compound COc1ccccc1CNCCCN1C(=O)c2ccc3c4c(ccc(c24)C1=O)C(=O)N(CCCNCCCCNCCCN)C3=O , report growth.
OUT: 1.6

IN: Read off the recorded growth for C/C(=C\c1ccc(OCC(=O)O)c(Cl)c1Cl)[N+](=O)[O-]
OUT: 95.2

IN: Please look at this compound and report its growth: CCN(CC)c1ccc2[nH]c3c(C(N)=O)cc(=O)c(=O)c=3oc2c1
OUT: 10.5

IN: Identify the reported growth for the following entry. COc1ccc(Cn2cc3c(c2-c2cc(OC)c(OC)c(OC)c2)CCc2cnoc2-3)cc1
OUT: 40.9

IN: Using the record for Cn1c(=O)c2[nH]c(C3CC=CCC3)nc2n(C)c1=O (centres undefined) , state its measured growth.
OUT: 96

IN: Look up growth of COc1ccc(-c2nc(N3CCCC3=O)sc2Br)cc1OC and report it.
OUT: 104

IN: Provide measured growth value, entry: N/C(=N\S(=O)(=O)c1ccccc1)Nc1nc2ccccc2s1
OUT: 92.2

IN: Return reported growth. Input compound: O=S(=O)(c1ccc(OCCO)cc1)c1ccc(OCCO)cc1
OUT: 122

IN: Item O=C(N/N=C/C=C\c1ccccc1)C(=O)N/N=C/C=C/c1ccccc1 : provide growth
OUT: 105

IN: Please report growth for the following compound: CCCCCCCCCCCCNC(=O)[C@H]1CSC(c2ccsc2)N1 (some centres undefined)
OUT: -77.1

IN: Tell me its growth given COc1cc([N+](=O)[O-])c2ncccc2c1O as the entry.
OUT: 88.2

IN: Tell me measured growth for CCCCN(CCCC)c1ccc(C(=N)c2ccc(N(CCCC)CCCC)cc2)cc1 please.
OUT: -95.9

IN: Let me know recorded growth for COc1ccc2[nH]c(=O)c(/C=N/Nc3nc(-c4ccccc4)cs3)c(O)c2c1 , thanks.
OUT: 56.4

IN: Provide one value: measured growth of CC[N+](CC)=c1cc2oc3cc(N(C)C)ccc3nc-2cc1C
OUT: 2.86

IN: Tell us which growth value is on record for COc1cc2c(cc1O)CCN1C[C@@H](CC(C)C)[C@@H](O)C[C@@H]21
OUT: 107

IN: Quick one: give measured growth for O=[N+]([O-])c1ccc(OCCCOc2ccccc2)cc1
OUT: 106

IN: Answer with the recorded growth for the compound listed here: O=C(C1=Cc2cc3ccccc3n2Cc2cnnn21)c1ccccc1
OUT: 58.8

IN: Return growth (reported value) for this compound: CCCCC(CC)OC(=O)C(Br)CC (centres undefined)
OUT: 98.1

IN: Return growth for the following compound: CC(O)CN1CCCCC1 (centres undefined)
OUT: 101

IN: Item CC(C)(C)n1cc(-c2ccnc(NCCCNS(=O)(=O)c3ccccc3)c2)c(-c2cccc(O)c2)n1 : provide growth
OUT: 50.8

IN: # return recorded growth for entry Clc1cc(Cl)cc(-c2ccc(-c3ccc(/C=N/NC4=NCCN4)cc3)s2)c1
OUT: 76.2

* * *

Test system: A549/ATCC NSCLC
Assay Info: NCI-60 one-dose screen, 48 h
Experimental Parameters: 10 µM unless noted
About 83,000 compounds went through this panel and 20% of them were active in at least one assay; those are over-represented in the sample as a whole. Calls of active or inactive are those of the source. How the source made its calls: active means growth percent below 10; inactive means the rest.
Permitted responses: active, inactive

The following compounds have reported results that may help.
# Compound, Assigned Label
data = [
    ("NC(=O)CCCN1C/C(=C\\c2ccccc2)C(=O)c2ccccc21", "inactive"),
    ("CC(C)c1ccc2occ(C=C3C(=O)NC(=O)NC3=O)c(=O)c2c1", "inactive"),
    ("C/C=C/C1=CN2C(=O)c3cc(OC4OC(C)C(NC)C(C)(O)C4O)c(C)cc3N=C[C@@H]2C1 (some centres undefined)", "active"),
    ("COc1cccc(CC(C)=C(c2ccc(OCCN(C)C)cc2)c2ccc(OCCN(C)C)cc2)c1", "active"),
    ("O=C(Oc1ccccc1[N+](=O)[O-])C1CCCN1C(=O)OCc1ccccc1 (centres undefined)", "inactive"),
    ("CC(C)(C)c1[nH]nc2c1C(c1cc3ccccc3[nH]c1=O)Nc1cc(C(=O)Nc3ccc(Cl)cc3)ccc1N2 (centres undefined)", "inactive"),
]

IN: Could you please tell me the result logged for Cc1nc2ncccc2nc1Nc1ccc(S(=O)(=O)Nc2cncs2)cc1 in this assay?
OUT: inactive

IN: Answer briefly: the call reported for Nc1cccc(-c2nc3sccn3c2-c2ccnc(NCCNS(=O)(=O)c3ccc(C(F)(F)F)cc3)n2)c1 in this assay.
OUT: inactive

IN: How was CCn1c2ccccc2c2cc(NC(=O)Nc3ccc([N+](=O)[O-])cc3C)ccc21 classified in this test?
OUT: inactive

* * *

# maps each entry to its growth
System: U251 CNS
Assay Info: NCI-60 one-dose screen, 48 h (100 = growth as untreated, 0 = no growth, -100 = all killed)
Experimental Parameters: 10 µM unless noted
This is part of a sample that, as a whole, favours compounds with a hit. Of some 83,000 tested, about 20% had one in any assay. Active and inactive are the calls of the source. How the source made its calls: active means growth percent below 10; inactive means the rest.

IN: Using known records, supply growth for COc1cc2c(=O)n(C3CCCCCC3)c3c4cc[nH]c4ncc3c2cc1OC
OUT: 67% (inactive)

IN: Name the recorded growth of the molecule listed here: O=C(Nc1cccc(-n2cc(-c3ccncc3)c(-c3ccc(Cl)c(O)c3)n2)c1)Nc1ccc(Cl)c(C(F)(F)F)c1
OUT: -70.4% (active)

IN: Determine its reported growth: NC(N)=Nc1nc2ccccc2o1
OUT: 101% (inactive)

IN: Please give measured growth of the following entry: COc1cc(C2C3=C(COC3=O)Nc3cc4c(cc32)OCO4)cc2c1OCO2 (centres undefined)
OUT: 18.5% (inactive)

IN: Note growth for the molecule shown: COc1ccc2[nH]c(=O)c(/C=N/Nc3nc(-c4ccccc4)cs3)c(O)c2c1
OUT: 44.3% (inactive)

IN: Supply measured growth of Cn1c2ccc(Br)cc2c2c3c(c4c5ccccc5[nH]c4c21)C(=O)N(O)C3=O in your reply.
OUT: -71% (active)

IN: For Cc1ccc(S(=O)(=O)C2=C3C(=C(c4ccccc4)c4ccccc43)CN(S(=O)(=O)c3ccc(C)cc3)C2)cc1 , write its growth.
OUT: 38.4% (inactive)

IN: For the molecule COc1ccc(-c2ccc(C)n2-c2ccc(-c3nc4ccccc4s3)cc2)cc1 , give its reported growth.
OUT: 90% (inactive)

IN: For the molecule Cc1ccc(S(=O)(=O)NCCNc2nccc(-c3c(-c4cccc(N)c4)nc4sccn34)n2)cc1 , give its reported growth.
OUT: 101% (inactive)
